Attribution: patent US7534894B2

Target: recombinant human plasminogen activator inhibitor-1 (PAI-1) (Homo sapiens)
Assay: Kinetic IC50: modification of the Primary Screen for the PAI-1 Inhibition
Response field label takes yes (1) when IC50 is strictly below 20 µM and no (0) in all other cases.

INPUT: A record lists O=C(Nc1ccc(-c2ccc(OC(Cc3ccccc3)C(=O)O)cc2)cc1)c1ccc(-c2ccc(Cl)cc2)s1 (centres unmarked) . Is its IC50 below 20 µM?
OUTPUT: yes (1)

INPUT: Same question for O=C(O)C(Cc1ccccc1)Oc1cccc(-c2ccc(NC(=O)C3(c4cccc(F)c4)CCCC3)cc2)c1 (centres unmarked) please.
OUTPUT: yes (1)

INPUT: Same question for O=C(Nc1ccc(-c2cccc(OC(Cc3ccccc3)C(=O)O)c2)cc1)c1ccc(-c2ccc(Cl)cc2)s1 (centres unmarked) please.
OUTPUT: no (0)

INPUT: Same question for O=C(Nc1ccc(-c2cccc(OC(Cc3ccccc3)C(=O)O)c2)cc1)c1cc(-c2ccc(C(F)(F)F)cc2)oc1C(F)(F)F (centres unmarked) please.
OUTPUT: yes (1)

INPUT: Same question for O=C(Nc1ccc(-c2cccc(OC(Cc3ccccc3)C(=O)O)c2)cc1)c1cc2cc(OCc3ccccc3)ccc2[nH]1 (centres unmarked) please.
OUTPUT: yes (1)

* * *

Entries and their IC50 values follow.
Biological target: recombinant human plasminogen activator inhibitor-1 (PAI-1) (Homo sapiens)
Assay: Kinetic IC50: modification of the Primary Screen for the PAI-1 Inhibition
Please state the figure in µM; there is no need to write the unit.

INPUT: // query IC50 value for entry CCCCc1oc2ccccc2c1C(=O)Nc1ccc(-c2cccc(OC(Cc3ccccc3)C(=O)O)c2)cc1 (stereo not drawn)
OUTPUT: 9.1

INPUT: Same question for Cc1nn(Cc2ccc(C(=O)Nc3ccc(-c4cccc(OC(Cc5ccccc5)C(=O)O)c4)cc3)o2)c(C)c1Br (stereo not drawn) please.
OUTPUT: 11.8

INPUT: Same question for O=C(O)C(Cc1ccccc1)Oc1cccc(-c2ccc(NC(=O)C3(c4ccc(Cl)cc4)CC3)cc2)c1 (stereo not drawn) please.
OUTPUT: 31.2

INPUT: Same question for O=C(Nc1ccc(-c2ccc(OC(Cc3ccccc3)C(=O)O)cc2)cc1)c1cc(-c2ccccc2Cl)oc1C(F)(F)F (stereo not drawn) please.
OUTPUT: 23.2

INPUT: Same question for CCCCc1oc2ccccc2c1C(=O)Nc1ccc(-c2ccc(OC(Cc3ccccc3)C(=O)O)cc2)cc1 (stereo not drawn) please.
OUTPUT: 8.71

INPUT: Same question for O=C(O)C(Cc1ccccc1)Oc1ccc(-c2ccc(NC(=O)C3(c4ccc(Cl)cc4)CCC3)cc2)cc1 (stereo not drawn) please.
OUTPUT: 18.1

* * *

Target: recombinant human plasminogen activator inhibitor-1 (PAI-1) (Homo sapiens, UniProt P05121)
Construct: purchased Molecular Innovations, Royal Oak, Mich
Test: Primary Screen for the PAI-1 Inhibition (residual tPA activity, chromogenic substrate Spectrozyme-tPA)
Format: biochemical
Settings: 100 μM test compound; 140 nM PAI-1, 70 nM tPA, pH 6.6
Classification field: 1 = inhibition at 100 µM at or over 70%; 0 = inhibition at 100 µM under 70%.

Illustrative cases are given below, each with its answer.
molecule	target-under-test	category-label
CCCCc1oc2ccccc2c1C(=O)N(C)Cc1ccc(-c2ccc(OCc3nnn[nH]3)c(Br)c2)cc1	recombinant human plasminogen activator inhibitor-1 (PAI-1) (Homo sapiens, UniProt P05121)	1
CCCCc1oc2ccccc2c1C(=O)Nc1ccc(-c2ccc(OCC(=O)O)cc2)cc1	recombinant human plasminogen activator inhibitor-1 (PAI-1) (Homo sapiens, UniProt P05121)	1
O=C(O)COc1ccc(-c2ccc(NC(=O)C3(c4ccc(Cl)cc4)CCC3)cc2)cc1	recombinant human plasminogen activator inhibitor-1 (PAI-1) (Homo sapiens, UniProt P05121)	1
O=C(Nc1ccc(-c2cccc(OC(Cc3ccccc3)C(=O)O)c2)cc1)c1ccc(-c2ccc(Cl)cc2)s1 (stereo not shown)	recombinant human plasminogen activator inhibitor-1 (PAI-1) (Homo sapiens, UniProt P05121)	0
O=C(Nc1ccc(-c2cccc(OC(Cc3ccccc3)C(=O)O)c2)cc1)c1cc(-c2ccc(-c3ccccc3)cc2)oc1C(F)(F)F (stereo not shown)	recombinant human plasminogen activator inhibitor-1 (PAI-1) (Homo sapiens, UniProt P05121)	0

Read the next record carefully.
INPUT: Hi team, for O=C(Nc1ccc(-c2ccc(OC(Cc3ccccc3)C(=O)O)cc2)cc1)c1sc2ccccc2c1Cl (stereo not shown) , is the recorded inhibition at 100 µM at or above 70%?
OUTPUT: 0

* * *

Molecular target: recombinant human plasminogen activator inhibitor-1 (PAI-1) (Homo sapiens, UniProt P05121)
Construct: purchased Molecular Innovations, Royal Oak, Mich
Assay: Primary Screen for the PAI-1 Inhibition (residual tPA activity, chromogenic substrate Spectrozyme-tPA)
Format: biochemical
Conditions: 25 μM test compound; 140 nM PAI-1, 70 nM tPA, pH 6.6
Method: Test compounds are dissolved in DMSO at a final concentration of 10 mM, then diluted 101× in physiologic buffer. […] Following the second incubation, Spectrozyme-tPA (American Diagnostica, Greenwich, Conn.), a chromogenic substrate for tPA, is added and absorbance read at 405 nm at 0 and 60 minutes. […]
Entries and their inhibition at 25 µM values follow.
Please state the figure in %; there is no need to write the unit.

Solved cases below.
compound	readout-unit	inhibition at 25 µM
Cn1cc(C(=O)N(Cc2ccccc2)Cc2ccc(-c3ccc(OCc4nnn[nH]4)c(Br)c3)cc2)c2ccccc21 [Compound 12]	%	55
O=C(Nc1ccc(-c2cccc(OC(Cc3ccccc3)C(=O)O)c2)cc1)c1cc(-c2ccc(-c3ccccc3)cc2)oc1C(F)(F)F (stereo not shown) [Compound 42]	%	35
O=C(O)C(Cc1ccccc1)Oc1ccc(-c2ccc(NC(=O)C3(c4ccc(Cl)cc4)CCCC3)cc2)cc1 (stereo not shown) [Compound 52]	%	55

INPUT: // query inhibition at 25 µM value for entry O=C(Nc1ccc(-c2cccc(OC(Cc3ccccc3)C(=O)O)c2)cc1)c1cc(-c2ccccc2Cl)oc1C(F)(F)F (stereo not shown) [Compound 40]
OUTPUT: 31

* * *

measured-parameter: melting point

compound	measured-value
CCCCc1oc2ccccc2c1C(=O)N(C)Cc1ccc(-c2ccc(OC(Cc3ccccc3)C(=O)O)c(Br)c2)cc1 (centres unmarked)	79 to 86 °C
CCCc1c(C(=O)NCc2ccc(-c3ccc(OCC(=O)O)cc3)cc2)cnn1-c1ccccc1	190 to 192 °C
CCCCc1oc2ccccc2c1C(=O)N(C)Cc1ccc(-c2ccc(OCC(=O)O)c(Br)c2)cc1	72 to 78 °C
CCCCc1oc2ccccc2c1C(=O)Nc1ccc(-c2ccc(OCc3nnn[nH]3)cc2)cc1	210 to 212 °C
CCCCc1oc2ccccc2c1C(=O)Nc1ccc(-c2ccc(OCC(=O)O)cc2)cc1	225 to 227 °C

INPUT: // query melting point value for entry CN(Cc1ccc(-c2ccc(OCc3nnn[nH]3)c(Br)c2)cc1)C(=O)c1cn(C)c2ccccc12
OUTPUT: 239 °C

INPUT: Same question for CCCc1c(C(=O)NCc2ccc(-c3ccc(OCC(=O)O)c(Br)c3)cc2)cnn1-c1ccccc1 please.
OUTPUT: 204 to 206 °C

INPUT: Same question for CCCCc1oc2ccccc2c1C(=O)NCc1ccc(-c2ccc(OCC(=O)O)c(Br)c2)cc1 please.
OUTPUT: 175 to 190 °C

* * *

# IC50 measurements, system: human PAI-1 (Homo sapiens)
# Sequence (P05121 24-402): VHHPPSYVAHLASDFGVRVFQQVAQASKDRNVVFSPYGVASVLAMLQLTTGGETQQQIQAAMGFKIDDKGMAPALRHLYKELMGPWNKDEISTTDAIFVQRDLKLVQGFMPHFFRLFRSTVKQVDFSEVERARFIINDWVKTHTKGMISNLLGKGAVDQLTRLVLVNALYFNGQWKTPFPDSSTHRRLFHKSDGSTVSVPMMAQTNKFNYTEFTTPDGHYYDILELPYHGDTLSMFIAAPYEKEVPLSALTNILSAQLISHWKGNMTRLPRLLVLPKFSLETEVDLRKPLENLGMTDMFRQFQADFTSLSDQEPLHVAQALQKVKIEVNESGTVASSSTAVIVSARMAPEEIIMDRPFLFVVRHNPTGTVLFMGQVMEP

Solved cases below.
molecule	IC50
CCCCc1oc2ccccc2c1C(=O)N(C)Cc1ccc(-c2ccc(OC(Cc3ccccc3)C(=O)O)c(Br)c2)cc1 (stereo not drawn)	20 µM
CCCCc1oc2ccccc2c1C(=O)N(C)Cc1ccc(-c2ccc(OCc3nnn[nH]3)c(Br)c2)cc1	10.8 µM

INPUT: Request: IC50, test system human PAI-1 (Homo sapiens), entry CCCc1c(C(=O)NCc2ccc(-c3ccc(OCC(=O)O)c(Br)c3)cc2)cnn1-c1ccccc1
OUTPUT: 37.5 µM

* * *

Molecular target: recombinant human plasminogen activator inhibitor-1 (PAI-1) (Homo sapiens, UniProt P05121)
Construct: purchased Molecular Innovations, Royal Oak, Mich
Assay: Primary Screen for the PAI-1 Inhibition (residual tPA activity, chromogenic substrate Spectrozyme-tPA)
Format: biochemical
Details: 100 μM test compound; 140 nM PAI-1, 70 nM tPA, pH 6.6
Entries and their inhibition at 100 µM values follow.

Solved cases below.
compound	inhibition at 100 µM
O=C(O)COc1ccc(-c2ccc(CNC(=O)c3cnn(-c4ccccc4)c3C(F)(F)F)cc2)cc1	60%
O=C(Nc1ccc(-c2cccc(OC(Cc3ccccc3)C(=O)O)c2)cc1)c1cc(-c2ccc(C(F)(F)F)cc2)oc1C(F)(F)F (stereo not shown)	88%
CCCc1c(C(=O)NCc2ccc(-c3ccc(OCC(=O)O)cc3)cc2)cnn1-c1ccccc1	66%

Now look at this entry.
INPUT: // query inhibition at 100 µM value for entry O=C(Nc1ccc(-c2cccc(OC(Cc3ccccc3)C(=O)O)c2)cc1)c1cc(-c2ccccc2Cl)oc1C(F)(F)F (stereo not shown)
OUTPUT: 90%
